For each entry below, report its Edemic 3 (E3) value.
Test system: zebrafish embryos
Assay: Phenotypic screen for edema and survival in zebrafish larvae at 72 hpf
Details: number of larvae (of 36); 3 μM from 2 hpf, scored at 72 hpf
Protocol: The screen was performed in zebrafish embryos using the National Cancer Institute's Developmental Therapeutics Program (NCI/DTP) Diversity Set I. This library contains 1990 compounds selected by pharmacophore modeling to represent the more than 140,000 small molecules maintained in the NCI/DTP Open Repository. […] Individual wells were then scored for a dominant phenotype, representative of at least four of the five embryos. […]

molecule	recorded-value
O=C(O)CCCS(=O)(=O)c1ccccc1 [PSOBA, 4-(phenylsulfonyl)butanoic acid, reference compound]	0

Report Edemic 3 (E3) for each item below.
1. O=C(CCCCCN1C(=O)c2cccc3cccc(c23)C1=O)NO [Scriptaid, reference compound]
2. CCCC(=O)O [butanoic acid, reference compound]
3. COC(=O)CCCSc1ccc(C)cc1
4. CC(/C=C/C(=O)NO)=C\[C@@H](C)C(=O)c1ccc(N(C)C)cc1 [TSA, trichostatin A, reference compound]
5. O=C(CCCSc1ccc(Br)cc1)NO
6. O=C(CCCSc1ccc(Cl)cc1)NO
7. O=C(CCCCCCC(=O)Nc1ccc([C@H]2O[C@@H](CSc3nc(-c4ccccc4)c(-c4ccccc4)o3)C[C@@H](c3ccc(CO)cc3)O2)cc1)NO [tubacin, reference compound]

[0, 0, 23, 0, 0, 22, 0]

Lab note: each molecule below needs its Edemic 3 (E3) filled in.
1. O=C(CCCSc1ccccc1)NO [UPHD-00023, N-hydroxy- 4(phenyl- sulfanyl)butanamide]
2. O=C(O)CCCSc1ccc2ccccc2c1 [4-(naphthalen-2-ylthio)butanoic acid, 4-(Naphthalen-2-ylthio)butanoic acid, reference compound]
3. COC(=O)CCCSc1ccc(Br)cc1
4. O=C(O)CCCCc1ccccc1 [5-phenylpentanoic acid, reference compound]

[13, 0, 0, 0]

Each of the following entries comes with a recorded value; kindly state Edemic 3 (E3) for each.
1. CCC(C)OC(=O)CCCSc1ccccc1 (centres unmarked)
2. O=C(O)CCCNc1ccccc1
3. Cn1cc(C(=O)Cc2ccccc2)cc1/C=C/C(=O)NO [APHA compound 8, reference compound]
4. CC(C)(C)OC(=O)CCCSc1ccccc1 [tert-butyl 4-(phenylthio)butanoate]
5. O=C(O)CCCc1ccccc1 [PBA, 4-phenylbutanoic acid, reference compound]

2
0
0
0
0

* * *

Tested on: renal progenitor cells
Assay: In situ hybridization for lhx1a expression in 10-somite embryos (renal progenitor cell expansion)
Format: in vivo
Settings: Danio rerio; first pass EC50 from percent expansion (Excel trendline); average where several experiments
observed-property: EC50

Provide reported EC50 for each item, in the same order as listed.
1. Nc1ccccc1NC(=O)CCCCCSc1ccccc1
2. O=C(NO)c1ccc(CSc2ccccc2)cc1
3. O=C(CCCCCSc1ccc2ccccc2c1)NO
4. COC(=O)CCCCCSc1ccccn1
5. Nc1ccccc1NC(=O)CCCCCSc1ccccn1

1: 890 nM; 2: > 3000 nM; 3: > 3000 nM; 4: > 3000 nM; 5: > 3000 nM

* * *

Provide the reported Dead of each item.
Tested on: zebrafish embryos
Assay: Phenotypic screen for edema and survival in zebrafish larvae at 72 hpf
Conditions: number of larvae (of 36); 3 μM from 2 hpf, scored at 72 hpf
Numbers only.

Before answering, review these 5 worked examples.
molecule	observed-property	recorded-value
O=C(O)CCCc1ccccc1 [PBA, 4-phenylbutanoic acid, reference compound]	Dead	0
O=C(O)CCCSc1ccccc1	Dead	1
Cc1ccc(SCCCC(=O)NO)cc1	Dead	22
COc1ccc(SCCCC(=O)NO)cc1	Dead	0
O=C(CCCSc1ccc(F)cc1)NO	Dead	28

Can you give me Dead for all of these, one by one?
1. O=C(CCCCCCC(=O)Nc1ccccc1)NO [SAHA, reference compound]
2. O=C(CCCCCCC(=O)Nc1ccc([C@H]2O[C@@H](CSc3nc(-c4ccccc4)c(-c4ccccc4)o3)C[C@@H](c3ccc(CO)cc3)O2)cc1)NO [tubacin, reference compound]
3. O=C(O)c1cccc(Sc2ccccc2)c1 [3-(phenylthio)benzoic acid, reference compound]
4. O=C(CCCSc1ccccc1)NO [UPHD-00023, N-hydroxy- 4(phenyl- sulfanyl)butanamide]
5. O=C(O)CCCSc1ccc2ccccc2c1 [4-(naphthalen-2-ylthio)butanoic acid, 4-(Naphthalen-2-ylthio)butanoic acid, reference compound]
6. COC(=O)CCCSc1ccc(Br)cc1
7. CCC(C)OC(=O)CCCSc1ccccc1 (stereo not shown)

0
0
0
0
2
0
1

Under zebrafish embryos: Dead value of CCCC(CCC)C(=O)O [valproic acid, reference compound] ?
0

* * *

Test system: renal progenitor cells
Experiment: In situ hybridization for lhx1a expression in 10-somite embryos (renal progenitor cell expansion)
Assay type: in vivo
Conditions: Danio rerio, percent of embryos with expanded kidney field; 3 μM; read-out: Expansion of Cells (including repeats* and recounts**) 3 μM
observed-property: responders at 3 µM (%)
One number for each entry, in %.

These recorded examples may help you get a feel for the data.
> print(dat)
                                    compound   observed.property  readout.unit  recorded.value
 1             Nc1ccccc1NC(=O)CCCCCSc1ccccn1  responders at 3 µM             %              30
 2  Nc1ccccc1NC(=O)CCCCCS(=O)(=O)c1ccc2ccccc2c1  responders at 3 µM             %              10
 3                     COC(=O)CCCCCSc1ncccn1  responders at 3 µM             %               6
 4          Nc1ccccc1NC(=O)CCCCCSc1ccc(F)cc1  responders at 3 µM             %             100
 5  O=C(CCCCCSc1ccccc1)NO [UPHD-00050, N-hydroxy-6-(phenyl-sulfanyl)hexanamide]  responders at 3 µM             %               0
 6                O=C(CCCCCSc1nc2ccccc2s1)NO  responders at 3 µM             %               0
 7            COC(=O)c1ccc(CSc2ccc(F)cc2)cc1  responders at 3 µM             %              20
 8                    Cc1ccc(SCCCC(=O)NO)cc1  responders at 3 µM             %             100
 9             Nc1ccccc1NC(=O)CCCCCSc1ccccc1  responders at 3 µM             %             100
10              Nc1ccccc1NC(=O)CCCCSc1ccccc1  responders at 3 µM             %              85

With those in mind, consider the next compound.
Request the reported responders at 3 µM associated with COC(=O)CCCCCSc1ccccc1 [UPHD-00047, methyl 6-(phenyl-sulfanyl)hexanoate]
100

* * *

System: zebrafish embryos
Experiment: Phenotypic screen for edema and survival in zebrafish larvae at 72 hpf
Settings: number of larvae (of 36); 3 μM from 2 hpf, scored at 72 hpf
observed-property: Edemic 3 (E3)
Numbers only.

Consider the reported Edemic 3 (E3) for these molecules:
> print(dat)
                                   molecule  observed.property  recorded.value
1  CCCOC(=O)CCCSc1ccccc1 [UPHD-00024, propyl 4-(phenylsulfanyl)butanoate]      Edemic 3 (E3)              15
2  O=C(CCCCCCC(=O)Nc1ccccc1)NO [SAHA, reference compound]      Edemic 3 (E3)               0
3                   COC(=O)CCCSc1ccc(Cl)cc1      Edemic 3 (E3)              19
4                        O=C(O)CCCSc1ccccc1      Edemic 3 (E3)               5

Which Edemic 3 (E3) is listed for COC(=O)CCCSc1ccc(F)cc1 ?
0

* * *

System: renal progenitor cells
Experiment: In situ hybridization for lhx1a expression in 10-somite embryos (renal progenitor cell expansion)
Type: in vivo
Settings: Danio rerio, percent of embryos with expanded kidney field; 800 nM; read-out: Expansion of Cells (including repeats* and recounts**) 800 nM
observed-property: responders at 0.8 µM (%)
One number for each entry, in %.

Known responders at 0.8 µM results, listed for orientation:
> print(dat)
                                   compound     observed.property  readout.unit  recorded.value
1        COC(=O)CCCCCSc1ccccn1 [UPHD-00065]  responders at 0.8 µM             %               6
2  COC(=O)CCCCCCSc1ccccc1 [UPHD-00040, methyl 7-(phenylsulfanyl)heptanoate]  responders at 0.8 µM             %               6
3   COC(=O)CCCCCSc1nc2ccccc2s1 [UPHD-00062]  responders at 0.8 µM             %               0

Below are 4 compounds. Give each one its responders at 0.8 µM.
1. Nc1ccccc1NC(=O)CCCCCSc1ccc2ccccc2c1 [UPHD-00060]
2. Nc1ccccc1NC(=O)CCCCCSc1nc2ccccc2s1 [UPHD-00071]
3. COC(=O)CCCCCSc1ccccc1 [UPHD-00047, methyl 6-(phenyl-sulfanyl)hexanoate]
4. COC(=O)CCCCCSc1ncccn1 [UPHD-00058]

1. 10
2. 74
3. 100
4. 20

Please state, for each entry, its recorded responders at 0.8 µM.
1. O=C(CCCCSc1ccccc1)NO [UPHD-00035]
2. Cn1c(SCCCCCC(=O)Nc2ccccc2N)nc2ccccc21 [UPHD-00081]
3. O=C(NO)c1ccc(CSc2ccccc2)cc1 [UPHD-00052]

1. 0
2. 10
3. 0
